# Study target: Cellular tumor antigen p53 (Homo sapiens)
# Experiment: nuclear p53 accumulation, HPV+ cells – imaging, p53-positive nuclei imaging, 24 h, 48 h (AID 1508601)
# Test context: 24/48 h, Library stock concentration: 13.7 uM, stronger effect = higher value
In all, about 5,700 compounds went through this assay and about 85 (1%) were called active. What follows is part of a selection rich in actives, with near analogues and random picks from the rest.
Reported property: p53-positive nuclei, normalised (%)
Report the value in % with no unit label.

Recorded p53-positive nuclei, normalised, per entry:
# Compound, Study target, Reported property, Unit of measurement, Observed
rows = [
    ("CC(=O)OC1C(=O)[C@]2(C)C(O)CC3OC[C@@]3(OC(C)=O)C2C(OC(=O)c2ccccc2)[C@]2(O)CC(OC(=O)C(O)C(NC(=O)c3ccccc3)c3ccccc3)C(C)=C1C2(C)C (some centres undefined)", "Cellular tumor antigen p53 (Homo sapiens)", "p53-positive nuclei, normalised", "%", 5.37),
    ("CCCCCCCCCCCCCC=CC(O)C(CO)N(C)C (centres undefined)", "Cellular tumor antigen p53 (Homo sapiens)", "p53-positive nuclei, normalised", "%", -0.121),
    ("O=C(O)c1ccccc1SC1=NS(=O)(=O)c2ccccc21", "Cellular tumor antigen p53 (Homo sapiens)", "p53-positive nuclei, normalised", "%", 0.0271),
    ("CCOC(=O)c1sc(NC(=O)c2ccco2)c(SC#N)c1C", "Cellular tumor antigen p53 (Homo sapiens)", "p53-positive nuclei, normalised", "%", -0.0345),
    ("CN(NC(=O)CC(=O)NN(C)C(=S)c1ccccc1)C(=S)c1ccccc1", "Cellular tumor antigen p53 (Homo sapiens)", "p53-positive nuclei, normalised", "%", 0.51),
]

Data request: Supply p53-positive nuclei, normalised value. Item: N#CSc1cc(SC#N)c(N)nc1N
Data returned: 0.047

Data request: Supply p53-positive nuclei, normalised value. Item: Nc1ccn(C2OC(CO)C(O)C2F)c(=O)n1 (centres undefined)
Data returned: 0.162

Data request: Supply p53-positive nuclei, normalised value. Item: CC(=O)NC(CSC(=S)NSc1ccc(SNC(=S)SCC(NC(C)=O)C(=O)O)cc1)C(=O)O (centres undefined)
Data returned: -0.0501

Data request: Supply p53-positive nuclei, normalised value. Item: Nc1ccn(C2C=C(CO)C(O)C2O)c(=O)n1 (centres undefined)
Data returned: -0.00208

----------
# Study target: Cellular tumor antigen p53 (Homo sapiens)
# Experiment: nuclear p53 accumulation, HPV+ cells – imaging, p53-positive nuclei imaging, 24 h, 48 h (AID 1508601)
# Test context: 24/48 h, measured here: p53 positive nuclei at 24 h, Library stock concentration: 400 uM, stronger effect = higher value
Among all 5,700 compounds or so, about 85 (1%) were called active. This is one part of a sample in which actives are shown more often than they occur.
Reported property: p53-positive nuclei, normalised (%)
Report the value in % with no unit label.

Recorded p53-positive nuclei, normalised, per entry:
# Compound, Reported property, Observed
records = [
    ("OC1CCC(Nc2ncc3nc(Nc4c(F)cc(F)cc4F)n(C4CCOC4)c3n2)CC1 (centres undefined)", "p53-positive nuclei, normalised", -0.0608),
    ("Cc1nc(Nc2n[nH]c3c2CN(C(=O)NC(CN(C)C)c2ccccc2)C3(C)C)c2sccc2n1 (centres undefined)", "p53-positive nuclei, normalised", 0.0839),
    ("CC(C)CC(C(=O)NC(Cc1ccc(OCc2ccccc2)cc1)C(=O)NC(C)(C)C)N(C)Cc1ccc(C(C)(C)C)cc1 (centres undefined)", "p53-positive nuclei, normalised", -0.22),
    ("COC(=O)C=CC(=O)N(O)CCCCNCc1ccc(COC(=O)Nc2cccc3ccccc23)cc1", "p53-positive nuclei, normalised", -0.0743),
    ("O=C(Cc1ccc(-c2ccc(OCCN3CCOCC3)cc2)cn1)NCc1ccccc1", "p53-positive nuclei, normalised", 1.51),
    ("CCC(=O)N1CCN(c2ccc(-n3c(=O)ccc4cnc5ccc(-c6cnc7ccccc7c6)cc5c43)cc2C(F)(F)F)CC1", "p53-positive nuclei, normalised", 0.126),
    ("CC(C)c1nn(-c2c(Cl)cccc2Cl)c2nc(Cc3ccc(OCCO)cc3)[nH]c(=O)c12", "p53-positive nuclei, normalised", 19.1),
    ("CC(=O)NC(CC(C)C)C(=O)NC(CC(C)C)C(=O)NC(C=O)CCCN=C(N)N (centres undefined)", "p53-positive nuclei, normalised", -0.0442),
]

Data request: Supply p53-positive nuclei, normalised value. Item: CCCCc1nc2cc(C=CC(=O)NO)ccc2n1CCN(CC)CC
Data returned: 7.57

Data request: Supply p53-positive nuclei, normalised value. Item: COc1ccc(N(C(=O)Nc2c(C)cccc2C)c2cc(Nc3ccc(N4CCN(C)CC4)cc3OC)ncn2)c(OC)c1
Data returned: -0.0385

Data request: Supply p53-positive nuclei, normalised value. Item: O=C1NCCCc2c1oc1ccc(O)cc21
Data returned: -0.105

Data request: Supply p53-positive nuclei, normalised value. Item: CC(C)(CO)c1cc2cc(NC(=O)C3(c4ccc5c(c4)OC(F)(F)O5)CC3)c(F)cc2n1CC(O)CO (centres undefined)
Data returned: 0.0862

Data request: Supply p53-positive nuclei, normalised value. Item: CN1CCN(c2ccc(Nc3c4ccccc4nc4ccccc34)cc2)CC1
Data returned: -0.059

Data request: Supply p53-positive nuclei, normalised value. Item: O=Nc1c(-c2c(O)[nH]c3cc(Br)ccc23)[nH]c2ccccc12
Data returned: 0.519

Data request: Supply p53-positive nuclei, normalised value. Item: CC(C)N(CCCNC(=O)Nc1ccc(C(C)(C)C)cc1)CC1OC(n2cc(Br)c3c(N)ncnc32)C(O)C1O (centres undefined)
Data returned: 0.0144

----------
# Experiment: nuclear p53 accumulation, HPV+ cells – imaging, p53-positive nuclei imaging, 24 h, 48 h (AID 1508601)
# Test context: 24/48 h, measured here: cell number at 24 h, concentration not given here
Screen size: about 5,700 compounds; about 85 (1%) were called active. The entries come from a sample that favours actives as a whole.
Listed below: nuclei count, normalised values for each entry.
Report the value in % with no unit label.

# Molecule, nuclei count, normalised, %
data = [
    ("O=C1CN(c2ncnc3sccc23)CCN1Cc1ccc(F)cc1", 108),
    ("CN(C)c1ccc(C(=O)NCCCCCCC(=O)NO)cc1", 116),
    ("O=C(c1ccccc1-c1nn[nH]n1)N1CCc2[nH]cnc2C1c1ccccn1 (stereo not drawn)", 101),
    ("c1ccc(-c2nc3c(cnn3C3CCCCC3)[nH]2)c(Cn2cccn2)c1", 106),
    ("CCCCCC(=O)/C=C/[C@H]1[C@H](O)CC(=O)[C@@H]1CCCCCCC(=O)O", 107),
]

Data request: Supply nuclei count, normalised value. Item: CCCCCNC(=O)N1CCC2(CC1)Nc1ccccc1N(CC1CC1)C2=O
Data returned: 105

Data request: Supply nuclei count, normalised value. Item: O=C(N[C@@H](CO)[C@H](O)c1ccc([N+](=O)[O-])cc1)C(Cl)Cl
Data returned: 109

Data request: Supply nuclei count, normalised value. Item: c1nc(-c2ccc3c(c2)OCCO3)c2sccc2n1
Data returned: 74.2

Data request: Supply nuclei count, normalised value. Item: NC(=O)c1ccc(-c2nc(-c3ccc4c(c3)OCCO4)c(-c3ccccn3)[nH]2)cc1
Data returned: 114

Data request: Supply nuclei count, normalised value. Item: CC(/C=C/C(=O)NO)=C\[C@@H](C)C(=O)c1ccc(N(C)C)cc1
Data returned: 53.4

Data request: Supply nuclei count, normalised value. Item: CCCCCCCCCCCCCCP(=O)(O)O
Data returned: 105

Data request: Supply nuclei count, normalised value. Item: CC(=O)N[C@@H](CC(C)C)C(=O)N1CCC(n2cc(C(C)(C)N)nn2)CC1
Data returned: 104

Data request: Supply nuclei count, normalised value. Item: CC/C=C\C/C=C\C/C=C\C/C=C\C/C=C\CCCCCC(=O)O
Data returned: 100

Data request: Supply nuclei count, normalised value. Item: COc1ccc(CN2CCN(c3nccc(-c4c(C)nn(C)c4C)n3)CC2=O)cc1
Data returned: 101

Data request: Supply nuclei count, normalised value. Item: COc1ccc(F)cc1-c1cnn(CC(=O)Nc2cc(C)nn2C)c1
Data returned: 95.8

Data request: Supply nuclei count, normalised value. Item: CCCCCCCCCCCCCCCCOC[C@H](CO)OC(C)=O
Data returned: 97.1

Data request: Supply nuclei count, normalised value. Item: CCCCC/C=C\C/C=C\CCCC/C=C\CCCC(=O)O
Data returned: 97.6

Data request: Supply nuclei count, normalised value. Item: O=S(=O)(NO)c1ccccc1
Data returned: 71.3

Data request: Supply nuclei count, normalised value. Item: CCCCc1ccc(N=CNO)c(C)c1
Data returned: 112

Data request: Supply nuclei count, normalised value. Item: O=C(CCn1cnnn1)N1CCc2[nH]nc(-c3ccc4c(c3)OCO4)c2C1
Data returned: 107

The origin of these recorded values is PubChem BioAssay AID1508601.
